Data origin: the supplement of paper PMC6555819

Tested on: VDR homodimer (NR concentration 270 nM)
Assay: PBM binding z-score (relative to random genomic background probes); higher = stronger binding; sequences stand for … in GC…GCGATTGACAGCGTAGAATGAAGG
The threshold is inclusive: PBM binding z-score of exactly 0.1 counts as 1; values below receive -1.

Use the examples below as a reference point.
* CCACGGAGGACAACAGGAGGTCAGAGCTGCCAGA | 1
* ATCGAAAGGTCGAGGTTAGTATAGAGAAAGGGAA | 1
* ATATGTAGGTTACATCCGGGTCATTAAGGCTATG | 1

Ask: Is the recorded value of PBM binding z-score equal to or greater than 0.1 for this sequence? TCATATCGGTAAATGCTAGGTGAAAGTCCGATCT
Result: -1

Ask: Also need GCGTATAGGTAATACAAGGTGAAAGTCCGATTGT , thanks.
Result: -1

Ask: Repeat for the following sequence: TTACCAAGGTGAAAGGTCGATGATGCACGCCTTG
Result: 1
